Target: hP2X4 (human purinergic P2X receptor subtype 4) (Homo sapiens, UniProt Q99571)
Sequence (Q99571 1-404 isoform Q99571-2): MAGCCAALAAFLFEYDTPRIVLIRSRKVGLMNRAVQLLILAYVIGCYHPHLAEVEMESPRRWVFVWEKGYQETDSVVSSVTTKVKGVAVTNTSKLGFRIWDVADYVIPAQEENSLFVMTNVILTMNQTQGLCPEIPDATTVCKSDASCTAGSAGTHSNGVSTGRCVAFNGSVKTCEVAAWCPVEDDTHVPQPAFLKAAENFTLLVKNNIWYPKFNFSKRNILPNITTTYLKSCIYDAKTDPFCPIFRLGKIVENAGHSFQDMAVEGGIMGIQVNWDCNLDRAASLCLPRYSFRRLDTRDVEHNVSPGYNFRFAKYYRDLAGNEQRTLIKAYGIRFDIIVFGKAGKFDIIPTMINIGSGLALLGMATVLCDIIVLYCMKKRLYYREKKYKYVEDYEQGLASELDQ
Conditions: P2X4 IC50 (nM), HEK293 cells stably expressing hP2X4; agonist BZ-ATP 2.5 μM; FLIPR calcium
measure: IC50

>>> assayresult("CCOc1nccc2c(S(N)(=O)=O)cc(NC(=O)Cc3ccccc3Cl)cc12")
"10 to 50 nM"
>>> assayresult("COc1nccc2c(S(N)(=O)=O)cc(NC(=O)Cc3c(Cl)ccc(F)c3O)cc12")
"200 to 5000 nM"
>>> assayresult("NS(=O)(=O)c1cc(NC(=O)Cc2ccccc2Cl)cc2ccnnc12")
"50 to 200 nM"
>>> assayresult("NS(=O)(=O)c1cc(NC(=O)Cc2ccccc2Cl)cc2c1CCN(c1ccc(F)cc1)C2")
"50 to 200 nM"
>>> assayresult("NS(=O)(=O)c1cc(NC(=O)Cc2ccc(F)cc2Cl)cc2c1CCN(c1ccc(F)cn1)C2")
"200 to 5000 nM"
>>> assayresult("CC#Cc1ccc2c(S(N)(=O)=O)cc(NC(=O)Cc3ccccc3Cl)cc2n1")
"10 to 50 nM"
>>> assayresult("C#Cc1ccc2c(S(N)(=O)=O)cc(NC(=O)Cc3ccccc3Cl)cc2n1")
"200 to 5000 nM"
>>> assayresult("CCN1CCc2c(cc(NC(=O)Cc3ccccc3Cl)cc2S(N)(=O)=O)C1")
"200 to 5000 nM"
>>> assayresult("COC(=O)N1CCc2c(cc(NC(=O)Cc3ccccc3Cl)cc2S(N)(=O)=O)C1")
"10 to 50 nM"
>>> assayresult("NS(=O)(=O)c1cc(NC(=O)Cc2ccccc2Cl)cc2c(OC3CCC3)nccc12")
"10 to 50 nM"
>>> assayresult("COc1ccc(Oc2ccc3c(S(N)(=O)=O)cc(NC(=O)Cc4ccccc4Cl)cc3n2)cc1")
"50 to 200 nM"
